Just for reference, ChEMBL document CHEMBL5352417 is where these values come from.

# assayTarget: Acetylcholinesterase (Electrophorus electricus) (UniProt O42275)
# Sequence (O42275 24-633 limits assumed): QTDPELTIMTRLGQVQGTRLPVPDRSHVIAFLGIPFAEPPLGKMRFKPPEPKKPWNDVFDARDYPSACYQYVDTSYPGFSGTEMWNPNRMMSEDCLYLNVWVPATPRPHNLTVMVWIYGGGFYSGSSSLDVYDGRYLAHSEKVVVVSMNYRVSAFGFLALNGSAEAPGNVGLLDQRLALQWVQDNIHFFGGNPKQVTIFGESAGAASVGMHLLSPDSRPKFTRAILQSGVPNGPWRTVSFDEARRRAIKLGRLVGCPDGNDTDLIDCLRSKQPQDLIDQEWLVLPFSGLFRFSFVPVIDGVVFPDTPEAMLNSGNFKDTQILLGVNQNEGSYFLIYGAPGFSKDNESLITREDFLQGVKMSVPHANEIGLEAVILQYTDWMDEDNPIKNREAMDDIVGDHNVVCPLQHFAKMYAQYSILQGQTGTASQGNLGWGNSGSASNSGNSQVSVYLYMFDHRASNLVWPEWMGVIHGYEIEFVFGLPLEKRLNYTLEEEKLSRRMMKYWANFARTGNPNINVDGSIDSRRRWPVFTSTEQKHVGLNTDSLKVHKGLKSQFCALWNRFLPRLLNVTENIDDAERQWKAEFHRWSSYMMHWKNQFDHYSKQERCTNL
# methodNotes: Inhibition of electric eel AchE using acetylthiocholine iodide as substrate at <10 uM measured for 3 mins by Ellman's method relative to control
observable: inhibition (%)

>  <compound>
CCN(CC)CCN(CC(=O)Nc1ccccc1C)Cc1ccc2ccccc2c1

>  <assayTarget>
Acetylcholinesterase (Electrophorus electricus) (UniProt O42275)

>  <quantitativeResult>
20.1

$$$$
>  <compound>
O=C(CN(Cc1ccco1)Cc1c[nH]c2ccccc12)Nc1ccccc1

>  <assayTarget>
Acetylcholinesterase (Electrophorus electricus) (UniProt O42275)

>  <quantitativeResult>
26.2

$$$$
>  <compound>
c1ccc(CCCN(Cc2ccc3ccccc3c2)Cc2ccco2)cc1

>  <assayTarget>
Acetylcholinesterase (Electrophorus electricus) (UniProt O42275)

>  <quantitativeResult>
13.4

$$$$
>  <compound>
Cc1ccccc1NC(=O)CN(Cc1ccc2ccccc2c1)CC(C)C

>  <assayTarget>
Acetylcholinesterase (Electrophorus electricus) (UniProt O42275)

>  <quantitativeResult>
22.2

$$$$
>  <compound>
O=C(CN(Cc1ccccc1)Cc1ccco1)Nc1cccc2ccccc12

>  <assayTarget>
Acetylcholinesterase (Electrophorus electricus) (UniProt O42275)

>  <quantitativeResult>
13.6

$$$$
>  <compound>
O=C(CN(Cc1ccccc1)Cc1ccco1)Nc1ccccc1Cl

>  <assayTarget>
Acetylcholinesterase (Electrophorus electricus) (UniProt O42275)

>  <quantitativeResult>
17.5

$$$$
>  <compound>
CCCN(CC(=O)Nc1ccccc1C)Cc1ccc2ccccc2c1

>  <assayTarget>
Acetylcholinesterase (Electrophorus electricus) (UniProt O42275)

>  <quantitativeResult>
22.9

$$$$
>  <compound>
COc1ccccc1NC(=O)CN(Cc1ccccc1)Cc1ccco1

>  <assayTarget>
Acetylcholinesterase (Electrophorus electricus) (UniProt O42275)

>  <quantitativeResult>
14.7

$$$$
>  <compound>
COc1ccc(NC(=O)CN(Cc2ccccc2)Cc2ccco2)cc1

>  <assayTarget>
Acetylcholinesterase (Electrophorus electricus) (UniProt O42275)

>  <quantitativeResult>
18.2

$$$$
>  <compound>
Cc1ccccc1NC(=O)CN(Cc1ccccc1)Cc1ccco1

>  <assayTarget>
Acetylcholinesterase (Electrophorus electricus) (UniProt O42275)

>  <quantitativeResult>
14.2

$$$$

###

# assayTarget: Cholinesterase (Equus caballus) (UniProt P81908)
# Sequence (P81908 whole entry): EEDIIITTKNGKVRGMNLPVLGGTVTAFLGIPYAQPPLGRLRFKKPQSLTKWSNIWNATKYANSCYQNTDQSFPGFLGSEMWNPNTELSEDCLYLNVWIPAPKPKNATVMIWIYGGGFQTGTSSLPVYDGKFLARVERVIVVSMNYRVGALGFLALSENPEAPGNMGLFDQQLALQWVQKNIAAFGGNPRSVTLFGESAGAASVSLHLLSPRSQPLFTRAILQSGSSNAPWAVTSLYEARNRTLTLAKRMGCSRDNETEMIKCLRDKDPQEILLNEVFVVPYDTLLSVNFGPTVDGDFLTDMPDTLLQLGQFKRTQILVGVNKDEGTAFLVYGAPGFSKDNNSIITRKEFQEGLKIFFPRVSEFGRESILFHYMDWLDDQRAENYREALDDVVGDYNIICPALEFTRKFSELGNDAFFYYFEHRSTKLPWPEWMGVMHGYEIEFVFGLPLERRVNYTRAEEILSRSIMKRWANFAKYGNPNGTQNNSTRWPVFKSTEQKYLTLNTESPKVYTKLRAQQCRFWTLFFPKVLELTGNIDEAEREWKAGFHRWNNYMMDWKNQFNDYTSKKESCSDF
# methodNotes: Inhibition of horse serum BuChE using butyrylthiocholine iodide as substrate at <10 uM measured for 3 mins by Ellman's method relative to control
# Assay type: cell-free
observable: inhibition (%)

>  <compound>
O=C(CN(Cc1ccccc1)Cc1ccco1)Nc1ccccc1F

>  <resultUnits>
%

>  <quantitativeResult>
50.9

$$$$
>  <compound>
O=C(CN(Cc1ccccc1)Cc1ccco1)Nc1ccc2ccccc2c1

>  <resultUnits>
%

>  <quantitativeResult>
50.4

$$$$
>  <compound>
O=C(CN(Cc1ccccc1)Cc1ccco1)Nc1ccc(C(F)(F)F)cc1

>  <resultUnits>
%

>  <quantitativeResult>
50.9

$$$$
>  <compound>
O=C(CN(Cc1ccccc1)Cc1ccco1)Nc1ccccc1Cl

>  <resultUnits>
%

>  <quantitativeResult>
50.5

$$$$
>  <compound>
COc1cccc(NC(=O)CN(Cc2ccccc2)Cc2ccco2)c1

>  <resultUnits>
%

>  <quantitativeResult>
50.1

$$$$
>  <compound>
O=C(CN(Cc1ccccc1)Cc1ccco1)Nc1cccc(F)c1F

>  <resultUnits>
%

>  <quantitativeResult>
50.1

$$$$
